Taken from patent US9670194B2.

Overview of recorded CLint scaled at 5 μM for various compounds
- protocol-summary: Compound stability in human liver microsomes
- Assay type: in vitro ADME
- recorded-conditions: human liver microsomes; in vivo CLint extrapolated
endpoint: CLint scaled at 5 μM (mL/min/kg)

[
  {
    "sample-smiles": "CC(C)c1nc(-c2c(N)ncnc2N[C@@H](C)c2nc3cccc(Cl)c3c(=O)n2C2CC2)no1",
    "unit-info": "mL/min/kg",
    "reported": 261
  },
  {
    "sample-smiles": "CCc1nc(-c2c(N)ncnc2N[C@@H](C)c2nc3cccc(Cl)c3c(=O)n2C2CC2)no1",
    "unit-info": "mL/min/kg",
    "reported": 286
  },
  {
    "sample-smiles": "CC[C@H](Nc1ncnc(N)c1-c1nc(C)no1)c1nc2ccccc2c(=O)n1-c1ccccc1F",
    "unit-info": "mL/min/kg",
    "reported": 163
  },
  {
    "sample-smiles": "CC[C@H](Nc1ncnc(N)c1-c1ccn(C)n1)c1nc2cccc(Cl)c2c(=O)n1C1CC1",
    "unit-info": "mL/min/kg",
    "reported": 76.9
  },
  {
    "sample-smiles": "Cc1nc(-c2c(N)ncnc2N[C@@H](C)c2nc3cccc(Cl)c3c(=O)n2C2CC2)no1",
    "unit-info": "mL/min/kg",
    "reported": 146
  },
  {
    "sample-smiles": "CC[C@H](Nc1ncnc(N)c1-c1nnn(C)n1)c1nc2cccc(Cl)c2c(=O)n1-c1cccc(F)c1",
    "unit-info": "mL/min/kg",
    "reported": 122
  },
  {
    "sample-smiles": "CC[C@H](Nc1ncnc(N)c1-c1ncn(C)n1)c1nc2cccc(C)c2c(=O)n1-c1ccccc1C",
    "unit-info": "mL/min/kg",
    "reported": 140
  },
  {
    "sample-smiles": "CC[C@H](Nc1ncnc(N)c1-c1nnc(C)o1)c1nc2cccc(Cl)c2c(=O)n1-c1ccccc1",
    "unit-info": "mL/min/kg",
    "reported": 32.5
  }
]

* * *

- protocol-summary: Compound stability in rat liver microsomes
- Assay type: in vitro ADME
- recorded-conditions: pH 7.4; rat liver microsomes 0.5 mg protein/mL, compound 5 μM, NADPH 1.0 mM, 37° C.
I would appreciate it if you labelled entries TRUE when half-life at 5 μM is 7 min or higher, otherwise FALSE.

[
  {
    "sample-smiles": "CC[C@H](Nc1ncnc(N)c1-c1noc(C)n1)c1nc2cccc(Cl)c2c(=O)n1-c1ccccc1",
    "answer-label": "FALSE"
  },
  {
    "sample-smiles": "CC[C@H](Nc1ncnc(N)c1-c1nc(C)co1)c1nc2cccc(Cl)c2c(=O)n1C1CC1",
    "answer-label": "FALSE"
  },
  {
    "sample-smiles": "CC[C@H](Nc1ncnc(N)c1-c1nnc(C)o1)c1nc2cccc(Cl)c2c(=O)n1C1CC1",
    "answer-label": "TRUE"
  },
  {
    "sample-smiles": "CC[C@H](Nc1ncnc(N)c1-c1nc(C(N)=O)n(C)n1)c1nc2cccc(Cl)c2c(=O)n1C1CC1",
    "answer-label": "TRUE"
  },
  {
    "sample-smiles": "CC[C@H](Nc1ncnc(N)c1-c1noc(C)n1)c1nc2cccc(C)c2c(=O)n1-c1ccccc1C",
    "answer-label": "FALSE"
  },
  {
    "sample-smiles": "CC[C@H](Nc1ncnc(N)c1-c1nnc(C)o1)c1nc2cccc(Cl)c2c(=O)n1-c1cccc(F)c1",
    "answer-label": "TRUE"
  },
  {
    "sample-smiles": "CC[C@H](Nc1ncnc(N)c1C1=N[C@@H](C)CO1)c1nc2cccc(Cl)c2c(=O)n1C1CC1",
    "answer-label": "FALSE"
  },
  {
    "sample-smiles": "Cc1noc(-c2c(N)ncnc2N[C@@H](C)c2nc3cccc(Cl)c3c(=O)n2C2CC2)n1",
    "answer-label": "TRUE"
  }
]
